pKi: −log10 of the molar value.
Consider compounds characterized by their pKi with Adenosine receptor A2a (Homo sapiens, UniProt P29274).
Sequence (P29274 whole entry): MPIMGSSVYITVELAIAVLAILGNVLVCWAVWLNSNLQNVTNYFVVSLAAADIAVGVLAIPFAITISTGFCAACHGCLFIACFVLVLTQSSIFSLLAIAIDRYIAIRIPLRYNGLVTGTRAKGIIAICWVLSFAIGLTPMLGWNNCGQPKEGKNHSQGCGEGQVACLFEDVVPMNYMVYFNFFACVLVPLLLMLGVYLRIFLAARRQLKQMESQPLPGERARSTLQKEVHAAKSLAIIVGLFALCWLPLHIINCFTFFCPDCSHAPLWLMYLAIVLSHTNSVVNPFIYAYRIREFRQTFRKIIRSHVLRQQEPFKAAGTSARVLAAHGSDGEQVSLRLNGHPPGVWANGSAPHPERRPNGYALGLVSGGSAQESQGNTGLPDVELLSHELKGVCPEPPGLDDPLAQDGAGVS

Compound	Parameter Measured	Result
CC1CSc2nc3nnnc-3c(O)n21 (stereo not drawn)	pKi	< 5.00

(Q) Please look up its pKi: Clc1ccc2[nH]c(-c3cnc4ccccc4n3)nc2c1
(A) < 5.00

(Q) Please look up its pKi: Cc1cccc2[nH]c(-c3cnc4ccccc4n3)nc12
(A) 6.08

(Q) Please look up its pKi: COc1ccc2nc(-c3cnc4ccccc4n3)[nH]c2c1
(A) < 5.00

(Q) Please look up its pKi: CCc1nc2c([nH]1)c1nc(C)[nH]c1c1nc(CC)[nH]c12
(A) 6.48

(Q) Please look up its pKi: O=[N+]([O-])c1cccc2[nH]c(-c3cnc4ccccc4n3)nc12
(A) < 5.00

(Q) Please look up its pKi: CSc1cccc2nc(-c3cnc4ccccc4n3)[nH]c12
(A) 5.52

(Q) Please look up its pKi: Oc1c2nnnc-2nc2sccn12
(A) < 5.00

---

Consider molecules characterized by their pKi with Adenosine receptor A2a (Homo sapiens, UniProt P29274).
pKi: −log10 of the molar value.

(Q) Recall the recorded pKi for O=c1[nH]c2ccccc2nc1-c1cc(Cl)[nH]n1 with Adenosine receptor A2a (Homo sapiens, UniProt P29274) and state it.
(A) < 5.00

(Q) Recall the recorded pKi for Clc1cc(Cl)c2[nH]c(-c3cnc4ccccc4n3)nc2c1 with Adenosine receptor A2a (Homo sapiens, UniProt P29274) and state it.
(A) < 5.00

(Q) Recall the recorded pKi for CCc1nc2c([nH]1)c1nc(CC)[nH]c1c1nc(CC)[nH]c21 with Adenosine receptor A2a (Homo sapiens, UniProt P29274) and state it.
(A) 6.14

(Q) Recall the recorded pKi for Cc1nc2c([nH]1)c1nc(C)[nH]c1c1nc(C)[nH]c21 with Adenosine receptor A2a (Homo sapiens, UniProt P29274) and state it.
(A) < 5.00

(Q) Recall the recorded pKi for Cc1cc2nc(-c3cnc4ccccc4n3)[nH]c2cc1C with Adenosine receptor A2a (Homo sapiens, UniProt P29274) and state it.
(A) < 5.00

(Q) Recall the recorded pKi for Cc1ccc2[nH]c(-c3cnc4ccccc4n3)nc2c1 with Adenosine receptor A2a (Homo sapiens, UniProt P29274) and state it.
(A) < 5.00
